# Tested on: HepG2
# ASSAY: cytotoxicity call (relative viability < 0.9)
# TEST_CONDITIONS: 10 µM
In all, about 39,000 compounds went through this assay and about 3,300 (8.5%) were called active. The sample as a whole holds a higher share of actives than the screen did.

{"columns": ["CHEMICAL_STRUCTURE", "cytotoxicity call"],
 "data": [
  ["COc1ccc(S(=O)(=O)Nc2ccc3c(c2)C(=O)N(C)C[C@@H](OC)[C@H](C)CN(C(=O)NC(C)C)[C@H](C)CO3)cc1", "inactive"],
  ["C[C@@H]1CN([C@H](C)CO)C(=O)Cc2cc(NC(=O)NC3CCCCC3)ccc2O[C@@H]1CN(C)Cc1ccc(C(=O)Nc2ccccc2N)cc1", "active"],
  ["O=C(C[C@H]1C[C@H]2c3cc(NC(=O)NC4CCCC4)ccc3O[C@H]2[C@@H](CO)O1)NCc1ccc(Oc2ccccc2)cc1", "inactive"],
  ["CCCN(C)C[C@H]1Oc2cc(C#Cc3cccc(OC)c3)ccc2S(=O)(=O)N([C@@H](C)CO)C[C@H]1C", "inactive"],
  ["C[C@H](CO)N1C[C@H](C)[C@H](CN(C)Cc2ccc(C(=O)Nc3ccccc3N)cc2)Oc2ccc(NC(=O)NC3CCCCC3)cc2CC1=O", "inactive"],
  ["C[C@@H]1CN([C@H](C)CO)C(=O)c2cc(NC(=O)CCN3CCOCC3)ccc2O[C@@H]1CN(C)C(=O)Nc1ccccc1", "inactive"],
  ["C[C@@H]1CN([C@H](C)CO)C(=O)Cc2cc(NC(=O)C3CCCCC3)ccc2O[C@@H]1CN(C)Cc1ccc(C(=O)Nc2ccccc2N)cc1", "active"]
]}

----------
# Test system: HepG2
# ASSAY: cytotoxicity call (relative viability < 0.9)
# TEST_CONDITIONS: 10 µM
In all, about 39,000 compounds went through this assay and about 3,300 (8.5%) were called active. The sample holds actives, similar compounds and a random draw of the others, so the mix is not that of the screen.
Outcome codes: yes (1) (active), no (0) (inactive)

{"columns": ["MOLECULE", "QUALITATIVE_LABEL"],
 "data": [
  ["O=c1cccn[nH]1", "no (0)"],
  ["C[C@H](CO)N1C[C@H](C)[C@H](CN(C)S(=O)(=O)c2ccc(F)cc2)Oc2ccc(NS(=O)(=O)c3ccc(F)cc3)cc2CC1=O", "no (0)"],
  ["NC1CCC(N[C@@H]2C[C@H]2c2ccccc2)CC1 (stereo not given in full)", "no (0)"],
  ["C[C@H]1CN([C@@H](C)CO)S(=O)(=O)c2ccc(-c3ccc(C(=O)N(C)C)cc3)cc2O[C@@H]1CN(C)C(=O)C1CCC1", "no (0)"],
  ["CC(C)(C)OC(=O)NCCOCCOCCOc1ccc(N(C(=O)CCl)[C@@H](C(=O)NCCc2ccccc2)c2cccs2)cc1Cl", "yes (1)"]
]}

----------
# Tested on: HepG2
# ASSAY: cytotoxicity call (relative viability < 0.9)
# TEST_CONDITIONS: 10 µM
The whole screen tested about 39,000 compounds, of which about 3,300 (8.5%) were called active. Only a selection was taken, and actives are over-represented in it overall.
Outcome codes: active, inactive

{"columns": ["COMPOUND", "QUALITATIVE_LABEL"],
 "data": [
  ["COc1ccc([Si](C)(C)[C@@H]2[C@@H](CC(=O)N3Cc4ccccc4C[C@H]3CO)O[C@]3(C(=O)N(Cc4cccc(N5CCC5=O)c4)c4ccccc43)[C@H]2C)cc1", "inactive"],
  ["C[C@H](CO)N1C[C@H](C)[C@H](CN(C)Cc2ccncc2)Oc2ccc(NC(=O)Nc3cccc4ccccc34)cc2CC1=O", "active"],
  ["C[C@H](CO)N1C[C@H](C)[C@H](CN(C)S(=O)(=O)c2ccccc2)Oc2c(NS(C)(=O)=O)cccc2C1=O", "inactive"],
  ["C[C@@H]1CCCCO[C@H](CN(C)Cc2ccncc2)[C@@H](C)CN([C@H](C)CO)C(=O)c2cc(NC(=O)Nc3ccc4c(c3)OCO4)ccc2O1", "inactive"],
  ["C[C@H]1CN([C@@H](C)CO)C(=O)Cc2cc(NC(=O)Nc3cccc4ccccc34)ccc2O[C@@H]1CN(C)Cc1ccncc1", "inactive"],
  ["C[C@H]1CN([C@@H](C)CO)C(=O)Cc2cc(NC(=O)Nc3ccc(C(F)(F)F)cc3)ccc2O[C@H]1CN(C)CC1CCCCC1", "active"],
  ["Cc1noc(C)c1NC(=O)Nc1ccc2c(c1)C(=O)N([C@@H](C)CO)C[C@H](C)[C@@H](CN(C)Cc1ccc(C(F)(F)F)cc1)OCCCC[C@H](C)O2", "inactive"],
  ["C#CC1(OC(C)=O)CCC2C3CCC4=CC(=O)CCC4C3CCC21C (stereo not drawn)", "inactive"],
  ["C[C@@H]1CCCCO[C@H](CN(C)S(=O)(=O)c2ccc(F)cc2)[C@@H](C)CN([C@H](C)CO)C(=O)c2cc(NC(=O)c3ccccc3)ccc2O1", "inactive"],
  ["C[C@H](O)C#Cc1ccc2c(c1)O[C@H](CN(C)C(=O)c1ccccc1)[C@H](C)CN([C@@H](C)CO)S2(=O)=O", "inactive"],
  ["C[C@H]1CN([C@@H](C)CO)C(=O)Cc2cc(NC(=O)Nc3ccc(C(F)(F)F)cc3)ccc2O[C@@H]1CN(C)CC1CCCCC1", "inactive"],
  ["COc1ccc([Si](C)(C)[C@H]2[C@H](CCn3cc([C@H](O)c4ccccc4)nn3)O[C@@]3(C(=O)N(C)c4c(Br)cc(C)cc43)[C@@H]2C)cc1", "active"],
  ["COc1ccc(C(=O)Nc2ccc(CN3C(=O)[C@]4(O[C@H](CC(=O)N(CCO)Cc5ccccc5)[C@@H]([Si](C)(C)c5ccc(OC)cc5)[C@@H]4C)c4ccccc43)cc2)cc1", "inactive"],
  ["C[C@@H]1CN([C@@H](C)CO)C(=O)Cc2cc(NC(=O)Nc3cccc4ccccc34)ccc2O[C@H]1CN(C)Cc1ccncc1", "inactive"],
  ["C[C@H](CO)N1C[C@H](C)[C@H](CN(C)S(=O)(=O)c2ccc(F)cc2)OCCCC[C@H](C)Oc2ccc(NC(=O)c3ccccc3)cc2C1=O", "inactive"],
  ["C[C@@H]1CN([C@@H](C)CO)C(=O)Cc2cc(NC(=O)C3CCCCC3)ccc2O[C@@H]1CN(C)S(=O)(=O)c1cn(C)cn1", "inactive"],
  ["C[C@@H]1CN([C@@H](C)CO)C(=O)Cc2cc(NC(=O)Nc3cccc4ccccc34)ccc2O[C@@H]1CN(C)Cc1ccncc1", "active"],
  ["CC(=O)OC1(C(C)=O)CCC2C3CC(C)C4=CC(=O)CCC4(C)C3CCC21C (stereo not drawn)", "inactive"],
  ["COc1ccc(NC(=O)Nc2ccc3c(c2)C(=O)N([C@H](C)CO)C[C@@H](C)[C@H](CN(C)S(=O)(=O)c2ccc(OC)cc2)OCCCC[C@H](C)O3)cc1", "inactive"],
  ["C#CC1(OC(C)=O)CCC2C3CCC4=CC(OC(C)=O)CCC4C3CCC21C (stereo not drawn)", "active"],
  ["COc1ccc([Si](C)(C)[C@@H]2[C@@H](CC(=O)N3Cc4ccccc4C[C@H]3CO)O[C@]3(C(=O)N(C)c4c(Br)cc(C)cc43)[C@H]2C)cc1", "inactive"],
  ["C[C@H]1CN([C@@H](C)CO)C(=O)c2cccc(NC(=O)C3CCOCC3)c2O[C@H]1CN(C)Cc1ccncc1", "inactive"],
  ["C[C@@H]1CN([C@@H](C)CO)C(=O)c2cccc(NC(=O)CCCCCC(=O)Nc3ccccc3N)c2O[C@H]1CN(C)C(=O)Nc1ccccc1", "inactive"],
  ["COc1ccc([Si](C)(C)[C@@H]2[C@@H](CC(=O)N(CCO)Cc3ccccc3)O[C@]3(C(=O)N(C)c4c(Br)cc(C)cc43)[C@H]2C)cc1", "inactive"],
  ["COC(=O)[C@@H](C)S(=O)(=O)NC(=O)c1cnc2ccccn2c1=O", "inactive"],
  ["C[C@@H]1CN([C@H](C)CO)C(=O)Cc2cc(NC(=O)C3CC3)ccc2O[C@H]1CN(C)Cc1ccc2c(c1)OCO2", "inactive"],
  ["C[C@@H]1CCCCO[C@@H](CN(C)S(=O)(=O)c2ccc(F)cc2)[C@@H](C)CN([C@@H](C)CO)C(=O)c2cc(NC(=O)c3ccccc3)ccc2O1", "inactive"],
  ["C#CC1(O)CCC2C3CCC4=CC(=O)CCC4C3CCC21CC (stereo not drawn)", "inactive"]
]}
